# TARGET SYSTEM: SIK2 (Homo sapiens (Human), UniProt Q9H0K1)
# Sequence (Q9H0K1 whole entry, species assumed): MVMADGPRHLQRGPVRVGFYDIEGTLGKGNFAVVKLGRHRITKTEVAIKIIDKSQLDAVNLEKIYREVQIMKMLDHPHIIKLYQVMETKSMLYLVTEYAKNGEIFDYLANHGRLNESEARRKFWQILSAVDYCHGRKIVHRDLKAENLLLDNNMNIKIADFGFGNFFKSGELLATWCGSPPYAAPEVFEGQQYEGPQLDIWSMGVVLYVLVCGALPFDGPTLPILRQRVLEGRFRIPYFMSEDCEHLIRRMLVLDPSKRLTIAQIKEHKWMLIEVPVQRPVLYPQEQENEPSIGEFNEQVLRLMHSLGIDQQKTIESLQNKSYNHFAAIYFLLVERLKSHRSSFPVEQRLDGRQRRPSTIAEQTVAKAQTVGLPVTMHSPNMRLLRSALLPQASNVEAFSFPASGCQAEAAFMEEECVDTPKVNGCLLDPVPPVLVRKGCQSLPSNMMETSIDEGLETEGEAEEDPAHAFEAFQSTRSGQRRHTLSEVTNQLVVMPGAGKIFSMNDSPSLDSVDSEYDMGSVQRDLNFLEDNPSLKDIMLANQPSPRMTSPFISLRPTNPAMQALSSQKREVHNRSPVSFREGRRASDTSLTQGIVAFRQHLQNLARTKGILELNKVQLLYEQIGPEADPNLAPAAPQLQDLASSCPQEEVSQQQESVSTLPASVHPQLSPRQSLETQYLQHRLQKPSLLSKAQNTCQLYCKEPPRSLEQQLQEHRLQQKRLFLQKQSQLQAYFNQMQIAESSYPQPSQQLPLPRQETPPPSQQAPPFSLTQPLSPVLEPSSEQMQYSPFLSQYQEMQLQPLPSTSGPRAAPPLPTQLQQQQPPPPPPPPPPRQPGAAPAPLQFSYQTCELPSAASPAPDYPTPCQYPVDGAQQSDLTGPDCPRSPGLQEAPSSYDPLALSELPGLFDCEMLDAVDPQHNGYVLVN
# PROTOCOL DESCRIPTION: SIK2 Enzymatic Assay Version 2 (High ATP)
# Format: biochemical
# EXPERIMENTAL SETUP: 3 mM ATP and 200 μM HDAC5tide final, ADP-Glo Max luminescence
MEASUREMENT KIND: pIC50
pIC50 (log units): -log10 of the concentration in mol/L.

COMPOUND	pIC50
C[C@@H]1[C@@H](COc2cnn(C)c2-c2ccn3nc(NC(=O)C4CC4)cc3c2)CN1C (single isomer, unassigned) [Example 41]	7.84
Cc1cc(Nc2cc3cc(-c4c(OC[C@H]5OCC[C@@H]5O)cnn4C(F)F)ccn3n2)nc(C)n1 [Example 99]	7.96
CO[C@H]1CNC[C@H]1Oc1cnn(C)c1-c1ccn2nc(NC(=O)C3CC3)cc2c1 (stereo in doubt) [Example 5]	7.96
Cc1cncc(Nc2cc3cc(-c4c(CO[C@H]5CN(C)C[C@@H]5C)cnn4C)ccn3n2)n1 (stereo in doubt) [Example 374]	7.76
Cn1ncc(O[C@H]2CCNC2)c1-c1ccc2nc(NC(=O)C3CC3)cn2c1 [Example 471]	7.25
COC1(COc2noc(C)c2-c2ccn3nc(NC(=O)C4CC4)cc3c2)CN(C)C1 [Example 29]	6.44

Fill in the blank: the reported pIC50 of COC1(COc2noc(C)c2-c2ccn3nc(Nc4cnccn4)cc3c2)CNC1 [Example 318] is ____.
7.87

Fill in the blank: the reported pIC50 of Cc1onc(O[C@@H]2CN[C@H](C)C2)c1-c1ccn2nc(NC(=O)C3CC3)cc2c1 [Example 85] is ____.
7.49

----------
# TARGET SYSTEM: SIK2 (Homo sapiens (Human), UniProt Q9H0K1)
# PROTOCOL DESCRIPTION: SIK2 Enzymatic Assay Version 2 (High ATP)
# Assay type: biochemical
# EXPERIMENTAL SETUP: 3 mM ATP and 200 μM HDAC5tide final, ADP-Glo Max luminescence
MEASUREMENT KIND: IC50 (nM)
Write it as a number; the unit nM goes unstated.

Examples with their reported IC50 follow.
COMPOUND	TARGET SYSTEM	MEASUREMENT KIND	EXPERIMENTAL RESULT
C[C@@H]1CN(C)C[C@@H]1Oc1cnn(C)c1-c1ccn2nc(NC(=O)C3CC3)cc2c1 (single isomer, unassigned)	SIK2 (Homo sapiens (Human), UniProt Q9H0K1)	IC50	102
Cc1onc(O[C@H]2CNC[C@H]2F)c1-c1ccn2nc(NC(=O)C3CC3)cc2c1	SIK2 (Homo sapiens (Human), UniProt Q9H0K1)	IC50	146
Cn1ncc(COC2CCNCC2)c1-c1ccn2nc(NC(=O)C3CC3)cc2c1	SIK2 (Homo sapiens (Human), UniProt Q9H0K1)	IC50	74.5
Cc1cc(Nc2cc3cc(-c4c(OC[C@H](O)C5(C)CC5)cnn4C)ccn3n2)nc(C)n1 (single isomer, unassigned)	SIK2 (Homo sapiens (Human), UniProt Q9H0K1)	IC50	59.1
Cc1cc(Nc2cc3cc(-c4c(O[C@H]5CCN[C@@H]5C)cnn4C)ccn3n2)nc(C)n1	SIK2 (Homo sapiens (Human), UniProt Q9H0K1)	IC50	106

Fill in the blank: the reported IC50 of `Cc1ccc(Nc2cc3cc(-c4c(O[C@H]5CCN(C)C5)cnn4C)ccn3n2)cn1` is ____.
107

Fill in the blank: the reported IC50 of `Cn1ncc(OC[C@H]2CCN2c2ccccn2)c1-c1ccn2nc(NC(=O)C3CC3)cc2c1` is ____.
79

----------
# TARGET SYSTEM: SIK2 (Homo sapiens (Human))
# PROTOCOL DESCRIPTION: SIK2 Enzymatic Assay Version 2 (High ATP)
# Assay type: biochemical
# EXPERIMENTAL SETUP: 3 mM ATP and 200 μM HDAC5tide final, ADP-Glo Max luminescence
MEASUREMENT KIND: pIC50
pIC50 (log units): -log10 of the concentration in mol/L.

COMPOUND	TARGET SYSTEM	MEASUREMENT KIND	EXPERIMENTAL RESULT
CCN1CC[C@@H]1COc1cnn(C)c1-c1ccn2nc(Nc3cnc(C(=O)OC)cn3)cc2c1	SIK2 (Homo sapiens (Human))	pIC50	8.85
CN1CC(COc2cnn(C)c2-c2ccn3nc(NC(=O)C4CC4)cc3c2)C1	SIK2 (Homo sapiens (Human))	pIC50	7.72
CN1CC[C@@H]1COc1cnn(C)c1-c1ccn2nc(NC(=O)[C@@H]3C[C@@H]3c3ccccc3)cc2c1 (single isomer, unassigned) [Example 474]	SIK2 (Homo sapiens (Human))	pIC50	6.37

Now for another entry.
Fill in the blank: the reported pIC50 of `CN1CC[C@H](Oc2cnn(C)c2-c2ccn3nc(Nc4cnc(C(F)(F)F)cn4)cc3c2)C1` is ____.
6.79

----------
pIC50 listing for selected compounds.
# TARGET SYSTEM: SIK2 (Homo sapiens (Human), UniProt Q9H0K1)
# PROTOCOL DESCRIPTION: SIK2 Enzymatic Assay Version 2 (High ATP)
# Format: biochemical
# EXPERIMENTAL SETUP: 3 mM ATP and 200 μM HDAC5tide final, ADP-Glo Max luminescence
pIC50 (log units): -log10 of the concentration in mol/L.

Fill in the blank: the reported pIC50 of `Cc1onc(OC[C@@H](N)C2CC2)c1-c1ccn2nc(NC(=O)C3CC3)cc2c1` is ____.
7.21

Fill in the blank: the reported pIC50 of `Cc1onc(OC[C@H]2CNCC(C)(C)O2)c1-c1ccn2nc(NC(=O)C3CC3)cc2c1` is ____.
8.89

Fill in the blank: the reported pIC50 of `CN1CC[C@@H]1COc1cnn(C)c1-c1ccn2nc(Nc3cnc(C(=O)NCC(C)(C)O)cn3)cc2c1` is ____.
8.05

Fill in the blank: the reported pIC50 of `Cc1cc(Nc2cc3cc(-c4c(OCC56CC(CN5)C6)cnn4C)ccn3n2)nc(C)n1` is ____.
7.77

----------
# TARGET SYSTEM: SIK2 (Homo sapiens (Human))
# PROTOCOL DESCRIPTION: SIK2 Enzymatic Assay Version 2 (High ATP)
# Format: biochemical
# EXPERIMENTAL SETUP: 3 mM ATP and 200 μM HDAC5tide final, ADP-Glo Max luminescence
MEASUREMENT KIND: IC50 (nM)
Write it as a number; the unit nM goes unstated.

COMPOUND	TARGET SYSTEM	MEASUREMENT KIND	EXPERIMENTAL RESULT
CCN1CC[C@@H]1COc1cnn(C)c1-c1ccn2nc(Nc3cc(C)nc(C)n3)cc2c1	SIK2 (Homo sapiens (Human))	IC50	0.9

Fill in the blank: the reported IC50 of `Cc1cnc(Nc2cc3cc(-c4c(O[C@H]5CCN(C)C5)cnn4C)ccn3n2)cn1` is ____.
81.3

Fill in the blank: the reported IC50 of `CNC(=O)c1nc(C)cc(Nc2cc3cc(-c4c(OC[C@H]5CCN5C)cnn4C)ccn3n2)n1` is ____.
6.2

Fill in the blank: the reported IC50 of Cc1cc(Nc2cc3cc(-c4c(OC[C@]5(F)CCNC5)cnn4C(F)F)ccn3n2)nc(C)n1 (single isomer, unassigned) is ____.
40.2

Fill in the blank: the reported IC50 of `CN1CC[C@@H]1COc1cnn(C)c1-c1ccn2nc(Nc3cnc(C(C)(C)C)cn3)cc2c1` is ____.
3.6

----------
# TARGET SYSTEM: SIK2 (Homo sapiens (Human))
# PROTOCOL DESCRIPTION: SIK2 Enzymatic Assay Version 2 (High ATP)
# Format: biochemical
# EXPERIMENTAL SETUP: 3 mM ATP and 200 μM HDAC5tide final, ADP-Glo Max luminescence
Categorized via IC50: I (below 8 nM), II (8 nM to below 30 nM), III (30 nM or more)

COMPOUND	CLASS ASSIGNMENT
Cc1cc(Nc2cc3cc(-c4c(OC[C@H]5CCN5C[C@H](C)O)cnn4C)ccn3n2)nc(C)n1	I
Cc1onc(OCC2(F)CNC2)c1-c1ccn2nc(NC(=O)C3CC3)cc2c1	II
COC[C@@H]1C[C@H](Oc2noc(C)c2-c2ccn3nc(Nc4cc(C)c(C)nn4)cc3c2)CN1	III

GET /class?item= `Cc1onc(OC[C@H]2NCC2(C)C)c1-c1ccn2nc(NC(=O)C3CC3)cc2c1`
II

GET /class?item= `Cn1ncc(COC2(C(F)(F)F)CNC2)c1-c1ccn2nc(NC(=O)C3CC3)cc2c1`
I

GET /class?item= CN1CC[C@@H]1COc1cnn(C)c1-c1ccn2nc(NC(=O)[C@H]3C[C@@H]3c3ccccc3)cc2c1 (single isomer, unassigned) [Example 156]
I

GET /class?item= `Cn1ncc(OC[C@@H]2CCNC2)c1-c1ccn2nc(NC(=O)C3CC3)cc2c1`
II

GET /class?item= `Cc1onc(OC[C@@H]2CCCNC2)c1-c1ccn2nc(NC(=O)C3CC3)cc2c1`
III

GET /class?item= `Cn1ncc(OC[C@H]2NCC2(C)C)c1-c1ccn2nc(NC(=O)C3CC3)cc2c1`
I

GET /class?item= `Cc1nc(Nc2cc3cc(-c4c(OC[C@H]5CCN5C)cnn4C)ccn3n2)cc(C(=O)N(C)C)n1`
I

GET /class?item= `CCN1CC[C@@H]1COc1cnn(C)c1-c1ccn2nc(Nc3cnc(OC)cn3)cc2c1`
I

GET /class?item= `Cn1ncc(CO[C@@H]2CNC[C@@H]2F)c1-c1ccn2nc(NC(=O)C3CC3)cc2c1`
I

GET /class?item= `Cn1ncc(OC2CNC2)c1-c1ccn2nc(NC(=O)C3CC3)cc2c1`
III

GET /class?item= Cc1cc(Nc2cc3cc(-c4c(OCC(N)C5(C)CC5)cnn4C)ccn3n2)nc(C)n1 (stereo not shown)
I

GET /class?item= `CN1[C@@H]2COC[C@H]1C[C@@H](OCc1cnn(C)c1-c1ccn3nc(NC(=O)C4CC4)cc3c1)C2`
II

GET /class?item= `CN1C[C@@H](F)[C@H](OCc2cnn(C)c2-c2ccn3nc(NC(=O)C4CC4)cc3c2)C1`
III

GET /class?item= Cn1ncc(OCC2NCC23CC3)c1-c1ccn2nc(NC(=O)C3CC3)cc2c1 (racemic)
II

GET /class?item= `CN1CC(C)(C)[C@H]1COc1cnn(C)c1-c1ccn2nc(NC(=O)C3CC3)cc2c1`
II

GET /class?item= Cc1cc(Nc2cc3cc(-c4c(OC[C@]5(C)CCCO5)cnn4C)ccn3n2)nc(C)n1 (single isomer, unassigned)
III

GET /class?item= `CCc1cc(Nc2cc3cc(-c4c(OC[C@H]5CCN5CC)cnn4C)ccn3n2)nc(C)n1`
I
